# System: Saccharomyces cerevisiae
# assay-info: protein stability index of tFT-peptide fusion (C-terminal peptide) (PSI (0-1 scale)); higher = more stable (slower turnover)
# experimental-parameters: genetic background: das1 deletion; temperature: 30 C
value-kind: protein stability index
Quick one: just the number, no unit, thanks!

Reported protein stability index ( NPAARLDEDLYE [FRS2 C-terminal 12 aa] ) = 0.662

Reported protein stability index ( KLYILKHLGSKQ [RRG9 C-terminal 12 aa] ) = 0.681

Reported protein stability index ( GVETLLDIFMKF [ARG82 C-terminal 12 aa] ) = 0.741

Reported protein stability index ( ARKFWTEDNNNL [STE2 C-terminal 12 aa] ) = 0.72

Reported protein stability index ( IQQTNSFLREII [YDL211C C-terminal 12 aa] ) = 0.692

Reported protein stability index ( SEETKKSCCSGK [CUP1-1 C-terminal 12 aa] ) = 0.695

Reported protein stability index ( TPVIDFSLKLAH [BNA6 C-terminal 12 aa] ) = 0.693

Reported protein stability index ( KVIFKDRPLPIM [CTF8 C-terminal 12 aa] ) = 0.643

Reported protein stability index ( GTKEYCKMIDFL [YLR108C C-terminal 12 aa] ) = 0.704

Reported protein stability index ( ELASYILKELNL [KIN2 C-terminal 12 aa] ) = 0.731

Reported protein stability index ( NAPRFGVEYQMT [PHO89 C-terminal 12 aa] ) = 0.723

Reported protein stability index ( SKILFLCQINIS [YNR042W C-terminal 12 aa] ) = 0.312

Reported protein stability index ( VNNAPARAKVSK [RCR2 C-terminal 12 aa] ) = 0.675

Reported protein stability index ( LISCCCCCFRRC [YNL097W-A C-terminal 12 aa] ) = 0.697

Reported protein stability index ( ISNLPECLGNLC [ANR2 C-terminal 12 aa] ) = 0.697

Reported protein stability index ( EDNDYELIFMNV [PML1 C-terminal 12 aa] ) = 0.719

Reported protein stability index ( ELKKIILESSMK [EXO5 C-terminal 12 aa] ) = 0.698

Reported protein stability index ( ASVRIFLYPSNI [RPL33A C-terminal 12 aa] ) = 0.7

Reported protein stability index ( LATWDKQGNLKY [SRN2 C-terminal 12 aa] ) = 0.724

Reported protein stability index ( MGIRLRYNVEPK [RPA135 C-terminal 12 aa] ) = 0.735

Reported protein stability index ( AAISFKEAPRSD [ANB1 C-terminal 12 aa] ) = 0.723

Reported protein stability index ( NYLFKLMGPSSD [VTC2 C-terminal 12 aa] ) = 0.687

Reported protein stability index ( KNSGEKLVAVLN [YCR102C C-terminal 12 aa] ) = 0.672

Reported protein stability index ( VHKDLDIKTVTL [PRO2 C-terminal 12 aa] ) = 0.691

Reported protein stability index ( KRYTVKKALAKA [RPL14A C-terminal 12 aa] ) = 0.626

Reported protein stability index ( EKLILAKKDQPN [IST3 C-terminal 12 aa] ) = 0.693

Reported protein stability index ( FVDYKTHPVGAN [RGI1 C-terminal 12 aa] ) = 0.709

Reported protein stability index ( MERELIKEEYDN [PAA1 C-terminal 12 aa] ) = 0.702

Reported protein stability index ( FDREDAMKKENK [DPH2 C-terminal 12 aa] ) = 0.692

Reported protein stability index ( FVKPGEICLREQ [RDH54 C-terminal 12 aa] ) = 0.712

Reported protein stability index ( WLTTKMSSSEAS [UIP4 C-terminal 12 aa] ) = 0.708

Reported protein stability index ( SVSYASGYVTIG [MHO1 C-terminal 12 aa] ) = 0.705

Reported protein stability index ( LIGFGNQVSKAL [BUD25 C-terminal 12 aa] ) = 0.703

Reported protein stability index ( ANTDKNNNPPGN [SNG1 C-terminal 12 aa] ) = 0.698

Reported protein stability index ( HEYVTINGDYRS [ARG7 C-terminal 12 aa] ) = 0.679

Reported protein stability index ( AEIISVRQVDQS [GIT1 C-terminal 12 aa] ) = 0.673

Reported protein stability index ( SHYHMWPIKRII [YMR082C C-terminal 12 aa] ) = 0.685
